# selectivity ratio annotations
Experiment: in vitro
Conditions: human, MT4 cells
Description: Selectivity index, ratio of CC50 for cytotoxicity against human MT4 cells to EC50 for antiviral activity against NNRTI-resistant HIV-1 harboring Y188L mutant infected in human MT4 cells

Some entries whose results are on file:
| smilesString | selectivity ratio |
| --- | --- |
| Cc1cc(C#N)cc(C)c1Oc1nc(Nc2ccc(C#N)cc2)nc2c1CN(Cc1ccc(S(N)(=O)=O)cc1)CC2 | > 6940 |
| Cc1cc(C#N)cc(C)c1Oc1nc(Nc2ccc(C#N)cc2)nc2c1CN(Cc1ccc(S(C)(=O)=O)cc1)CC2 | > 6050 |
| Cc1ccc(C(=O)N2CCc3nc(Nc4ccc(C#N)cc4)nc(Oc4c(C)cc(C#N)cc4C)c3C2)cc1 | > 4810 |

Consider the compound Cc1cc(C#N)cc(C)c1Oc1nc(Nc2ccc(C#N)cc2)nc2c1CN(C(=O)c1ccc([N+](=O)[O-])cc1)CC2 and give its measured selectivity ratio.
> 5130
